experimental_target: 3-oxo-5-alpha-steroid 4-dehydrogenase 1 (Homo sapiens)
assay_protocol: Inhibition of human type-1 5-alpha reductase expressed in HEK293 cells using [3H]-androstenedione as substrate at 10 uM after 30 mins by HPLC analysis
Assay type: cell-based
Give measured inhibition for each item. Keep answers brief.
Answers are plain numbers, in %.

// solved cases for inhibition follow
C[C@]12CC[C@H]3[C@@H](CC=C4C=C(C#N)CC[C@@H]43)[C@@H]1CCC2=O: 0
C[C@]12CC[C@H]3[C@@H](CC=C4C=C(C(=O)O)CC[C@@H]43)[C@@H]1CCC2=O: 82.1
C=CCN1C(=O)CC[C@H]2[C@@H]3CC=C4C=C(C#N)CC[C@]4(C)[C@H]3CC[C@@]21C: 20.8

Here's the next entry for you.
[ask] Consider the compound `CCN1C(=O)CC[C@H]2[C@@H]3CC=C4C=C(C(=O)O)CC[C@]4(C)[C@H]3CC[C@@]21C` and give its measured inhibition.
[reply] 32.3
